test.method.notes: Viability qHTS for spleen associated tyrosine kinase inhibitor (SYKi) drug resistant MV4-11 cells (AID 1963824); further: nearly all actives have a fitted effect of over 35% in size
assay.conditions: SYKi-resistant MV4-11 viability, CellTiter-Glo, 72 h; series mostly up to 45 µM
Results filed as inconclusive are left out. Active and inactive are the calls of the source. The call rests on the fitted dose curve; in most records, active means well fitted cell-killing curve with a large enough effect; inconclusive means small, poorly fitted or top-dose-only effect, or effect the other way; inactive means no such curve, though single readings can be large or run the other way.
Hello, when you answer, please use one of the following outcomes: active, inactive

Some entries whose results are on file:
Ask | Which result was noted for this molecule in the test: C=CCCN1CCC2(CC1)CN(C(=O)c1c(F)cccc1F)c1ccc(Cl)cc12
Reply | active

Ask | Each molecule tested received a call. Report the one for Cc1cc(NC(=O)c2cccc(NC(=O)/C=C/CN(C)C)c2)ccc1Nc1nccc(-c2cccnc2)n1 .
Reply | active

Ask | Any idea what this test logged for O=C(Nc1nc2cc(C(F)(F)F)cc(NC3CC3)n2n1)c1cccnc1 ?
Reply | active

Ask | Called result for NC(=O)[C@H](O[C@@H]1O[C@H](CO)[C@@H](O)[C@H](O)[C@H]1O)c1ccccc1
Reply | inactive

Ask | What was the test verdict on CCN(CC)CCCCNc1ncc2c(n1)N(C)C(=O)N(c1c(Cl)c(OC)cc(OC)c1Cl)C2 ?
Reply | active

New cases:
Ask | Given COC(=O)C1=C(C)NC(c2ncc(F)cc2F)=N[C@@H]1c1ccc(F)cc1Cl , state the outcome it received in this test.
Reply | active

Ask | Record request — test call for CC(N=C(NC#N)Nc1ccncc1)C(C)(C)C (stereo not given)
Reply | inactive

Ask | Recorded call for C=CC(=O)Nc1cc(Nc2ncc(Cl)c(-c3c[nH]c4ccccc34)n2)c(OC)cc1N(C)CCN(C)C ?
Reply | active

Ask | GET /call?item= COC(=O)CC(O)C1OC(c2ccccc2)C(O)C1O (stereo not given) returns the recorded outcome of this test.
Reply | inactive

Ask | How was C=C1[C@H](CO)[C@@H](O)C[C@@H]1n1cnc2c(=O)[nH]c(N)nc21 classified in this test?
Reply | inactive

----------
test.method.notes: Quantitative highthroughput screen to assess conditional lethalithy of SEM cells grown in RPMI1640 with unreated serum (RPMI+s) (AID 1963883); further: nearly all actives have a fitted effect of over 35% in size
assay.conditions: SEM B-ALL cells, CellTiter-Glo viability, 48 h; series mostly up to 45.8 µM
Records with an inconclusive call do not appear. Activity calls are given as the source filed them. Calls follow the shape of the dose curve; as a rule, active = well fitted cell-killing curve with a large enough effect; inconclusive = small, poorly fitted or top-dose-only effect, or effect the other way; inactive = no such curve, though single readings can be large or run the other way.
Choose the fitting class; nothing outside active, inactive is accepted.

Ask | Could you kindly confirm the outcome this assay logged for C[C@]12CCC3c4ccc(O)cc4CCC3C1CCC2=O (stereo partly drawn) ?
Reply | inactive

Next:
Ask | // param item: O=C(c1ccc(Nc2nccc(-c3cc4ccccc4s3)n2)cc1)N1CCC(N2CCCC2)CC1 ; yields the recorded call
Reply | active

Ask | Given CN[C@@H](C)[C@H]1[C@H](O)C[C@@]2(C)[C@@H]3CC[C@H]4C(C)(C)[C@@H](NC)CC[C@@]45C[C@@]35CC[C@]12C , state the outcome it received in this test.
Reply | inactive

Ask | Given CCc1ccc(CCOc2ccc(CC3SC(=O)NC3=O)cc2)nc1 (stereo not drawn) , state the outcome it received in this test.
Reply | inactive

----------
test.method.notes: Quantitative highthroughput screen to assess conditional lethalithy of P12 Ichikawa cells grown in RPMI1640 with dialyzed fetal bovine serum (RPMI+ds) (AID 1963880); further: nearly all actives have a fitted effect of over 35% in size
assay.conditions: ATP luminescence, 48 h; P12-Ichikawa viability; series mostly up to 45.8 µM
Results filed as inconclusive are left out. Activity calls are given as the source filed them. Calls come from the whole dose curve; as a rule, active = well fitted cell-killing curve with a large enough effect; inconclusive = small, poorly fitted or top-dose-only effect; inactive = flat fitted curve, though single readings scatter.
Respond only with the outcome that fits, drawn from Y = active, N = inactive

Ask | State the result this test recorded for CC(C)(C)OC(=O)N[C@H]1CCCCCC=C[C@@H]2C[C@@]2(C(=O)NS(=O)(=O)C2CC2)NC(=O)[C@@H]2C[C@@H](OC(=O)N3Cc4cccc(F)c4C3)CN2C1=O .
Reply | N

Ask | # fetch the recorded call for CC(C)=CCCC(C)=CCCC(C)=CCCC(C)=CCCC(C)=CCCC(C)=CCCC(C)=CCCC(C)=CCCC(C)=CCO here
Reply | N

Others:
Ask | // return assay outcome for Oc1ccc(C2=Cc3ccc(O)cc3OC2)cc1
Reply | Y

Ask | State the result this test recorded for O=C(O)[C@@H](c1ccc(OCc2ccc3ccccc3n2)cc1)C1CCCC1 .
Reply | N

Ask | What did this assay record as the result for CNC(=O)c1ccc(C)c(-n2c(C)cc(OCc3ccc(F)cc3F)c(Br)c2=O)c1 ?
Reply | N

Ask | What did this assay record as the result for CC1(C)OC2=C(C(=O)c3ccccc3C2=O)[C@H](NCc2ccccc2)[C@H]1O ?
Reply | Y

----------
test.method.notes: Quantitative highthroughput screen to assess conditional lethalithy of P12 Ichikawa cells grown in Human Plasma-Like Medium with dialyzed fetal bovine serum (HPLM+ds) (AID 1963879); further: nearly all actives have a fitted effect of over 35% in size; further: potency means the concentration at half of the fitted maximal effect
assay.conditions: ATP luminescence, 48 h; viability; series mostly up to 45.8 µM
Records with an inconclusive call do not appear. Activity calls are given as the source filed them. Calls come from the whole dose curve; as a rule, active = well fitted cell-killing curve with a large enough effect; inconclusive = small, poorly fitted or top-dose-only effect; inactive = flat fitted curve, though single readings scatter.
value.type: Potency

Completed entries (count: 4):
Ask | What does the data say about its Potency? Entry: CC(C)(C)[C@H](NC(=O)c1ccc(N)c(Cl)c1)C(=O)N1CCC[C@@H]1C(=O)N[C@H](C#N)CC(=O)O
Reply | 372 nM (active)

Ask | Consider the compound shown here: NC(=O)c1ncn([C@@H]2O[C@H](CO)[C@@H](O)[C@@H]2O)c1O What is its recorded Potency?
Reply | inactive

Ask | Fill blank: measured Potency of the compound O=C(O)c1ccc(Nc2ncc3c(n2)-c2ccc(Cl)cc2C(c2c(F)cccc2F)=NC3)cc1 is ____.
Reply | 1180 nM (active)

Ask | Request the reported Potency associated with O=C(NC1CCNCC1)c1[nH]ncc1NC(=O)c1c(Cl)cccc1Cl
Reply | 1660 nM (active)

Continuing:
Ask | Please report the recorded Potency for Cc1csc(-c2nnc(Nc3ccc(Oc4ncccc4-c4ccnc(N)n4)cc3)c3ccccc23)c1 .
Reply | 10.5 nM (active)

Ask | # query: Potency of entry CC(Cc1ccc(O)c(O)c1)(NN)C(=O)O (stereo not given)
Reply | inactive

Ask | // query Potency value for entry CCCCOCCOc1nc(-c2ccc(C(=O)O)c(F)c2)sc1C
Reply | inactive

Ask | Fill blank: measured Potency of the compound O=c1cc(O)c(Cl)c[nH]1 is ____.
Reply | 7430 nM (active)

Ask | So what's the measured Potency for this one? CC(C)[C@H](CO)Nc1nc(Nc2cccc(Cl)c2)c2ncn(C(C)C)c2n1
Reply | 4180 nM (active)

Ask | I would be grateful if you could share the reported Potency for CCOC(=O)C(C)Oc1cccc2c(=O)n(CC(=O)Nc3ccc4c(c3)OCCO4)ccc12 (stereo not given) .
Reply | inactive

----------
test.method.notes: Viability qHTS for spleen associated tyrosine kinase inhibitor (SYKi) naive MV4-11 cells (AID 1963823); further: nearly all actives have a fitted effect of over 40% in size
assay.conditions: MV4-11 AML viability, CellTiter-Glo luminescence, 72 h; series mostly up to 45 µM
Records with an inconclusive call do not appear. Activity calls are given as the source filed them. The call rests on the fitted dose curve; in most records, active means well fitted cell-killing curve with a large enough effect; inconclusive means small, poorly fitted or top-dose-only effect, or effect the other way; inactive means no such curve, though single readings can be large or run the other way.
Permitted responses: YES for active, NO for inactive

Study these solved cases before continuing.
Ask | Entry CC1(C)SC2C(NC(=O)[C@H](NC(=O)N3CCNC3=O)c3ccccc3)C(=O)N2C1C(=O)O (stereo not given in full) : call = ?
Reply | NO

Ask | Please state the recorded outcome for this compound: COCCOC(=O)N1CCN(S(=O)(=O)c2cc(F)c(Oc3ccc(Cl)cc3)c(F)c2)C(C(=O)NO)C1 (stereo not given)
Reply | YES

***
Ask | Identify the outcome logged in this assay for the compound shown: COCCOCC(OC)OC
Reply | NO

Ask | Hi, sorry to bother you, what did the test record for CCC(CCO[C@@H]1O[C@H](CO[C@H]2OC[C@](O)(CO)[C@H]2O)[C@@H](O)[C@H](O)[C@H]1O)C(C)(C)O (stereo not given in full) ?
Reply | NO

Ask | // outcome(item) with item = COc1cc(C(=O)N2CCCCCCC2)cc(OC)c1OC
Reply | NO

Ask | Could you kindly confirm the outcome this assay logged for COc1cc(N)c(Cl)cc1C(=O)NC[C@@H]1CCN2CCC[C@@H]12 ?
Reply | NO

Ask | Look up the recorded call for CC1CC(=O)C2C(O)(C1)CC(O)C13OC1c1c(O)cccc1C(=O)C23O (stereo not given) in this test.
Reply | YES

Ask | Tell me the recorded outcome of this test for COc1ccc([C@@H]2CNC(=O)C2)cc1OC1CCCC1 .
Reply | NO

Ask | Please share the test call associated with O=C(NCCO)c1cc(C(=O)NCCO)cc(C(=O)NCCO)c1 .
Reply | NO

Ask | Returns: the outcome recorded for C=C1C(=O)O[C@@H]2CC(C)=C([C@@H](C)CCCOC(C)=O)[C@@H](O)[C@H]12 in this assay.
Reply | NO

Ask | Fill in: this test's call for Nc1ccn([C@H]2CC[C@@H](CO)O2)c(=O)n1 is ___
Reply | NO

Ask | Dear colleague, could you share the recorded outcome for CN1CC[C@@H](c2c(O)cc(O)c3c(=O)cc(-c4ccc(C(F)(F)F)cc4Cl)oc23)[C@@H]1CO when you have a moment?
Reply | YES

Ask | Assay outcome for O=C(NCCN1CCC(n2c(=O)[nH]c3ccccc32)CC1)c1cc2cc(F)ccc2[nH]1 : what was it?
Reply | YES

Ask | Any idea what this test logged for COc1ccc(-c2ccc3c(N4CCOCC4)nc(N4CC(C)OC(C)C4)nc3n2)cc1CO (stereo not given) ?
Reply | YES
